Tested on: TMD-8 cells
Assay: Cell proliferation assay (CellTiter-Glo), TMD-8 cells
Format: cell-based
Details: Homo sapiens, TMD8, 120 h, 5-day treatment, read-out: TMD8 cell growth (GI50 μM)
outcome-measure: GI50 (µM)

compound: C=CC(=O)N1CC[C@@H](Nc2ncnc3[nH]c(C#Cc4cnn(C)c4)cc23)C1
outcome-measure: GI50
unit-of-measurement: µM
readout-value: 0.51
--
compound: C=CC(=O)N1CC[C@@H](Nc2ncnc3[nH]c(C#Cc4ccc5sccc5c4)cc23)C1
outcome-measure: GI50
unit-of-measurement: µM
readout-value: 0.001
--
compound: C=CC(=O)N1CCN(c2ncnc3[nH]c(C#CCOc4ccccc4)cc23)CC1
outcome-measure: GI50
unit-of-measurement: µM
readout-value: 0.054
--
compound: C=CC(=O)N1CC[C@@H](Nc2ncnc3[nH]c(C#CCOc4ccccc4C(F)(F)F)cc23)C1
outcome-measure: GI50
unit-of-measurement: µM
readout-value: 0.002
--
compound: COc1cccc(OCC#Cc2nc3c(NC4CCN(C(=O)/C=C/CN(C)C)C4)ncnc3[nH]2)c1 (centres unmarked)
outcome-measure: GI50
unit-of-measurement: µM
readout-value: 1.21
--
compound: C=CC(=O)N1CC[C@@H](Nc2ncnc3[nH]c(C#CCOc4c(F)cccc4F)nc23)C1
outcome-measure: GI50
unit-of-measurement: µM
readout-value: 0.005
--
compound: C=CC(=O)N1CC[C@@H](Nc2ncnc3[nH]c(C#Cc4cccc(F)c4)cc23)C1
outcome-measure: GI50
unit-of-measurement: µM
readout-value: 0.022
--
compound: C=CC(=O)N1CCC(Nc2ncnc3[nH]c(C#CCOc4ccccc4OC)nc23)C1 (centres unmarked)
outcome-measure: GI50
unit-of-measurement: µM
readout-value: 0.006
